Measured inhibition, listed per entry.
test.description: 5' untranslated region of α-synuclein, MLPCN primary screen (AID 1813);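 also: H4 neuroglioblastoma cells stably carrying SNCA 5'UTR luciferase fusion; 0% = DMSO wells and 100% = positive control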
conditions.used: alpha-synuclein 5'UTR reporter, inhibitor activity; active compounds read high; tested at 7.5 µM
Among all 300,000 compounds or so, about 2,500 (0.83%) were called active. Only a selection was taken, and actives are over-represented in it overall.
Just the number in %, nothing appended.

>>> experimental_value("C[C@H](NC(=O)c1nc[nH]c1C(=O)NCC(=O)OC(C)(C)C)c1ccccc1")
24.4
>>> experimental_value("Cc1cc(OC(=O)c2ccc(OC(C)C)cc2)c([N+](=O)[O-])c(=O)[nH]1")
-3.29

*Q* Given the compound S=c1[nH]c(-c2cccs2)cn1-c1ccccc1 , what is its reported inhibition?
*A* -60.3

*Q* Given the compound CNC(=O)c1csc(Cc2c(Cl)sc3ccc(Cl)cc23)n1 , what is its reported inhibition?
*A* -10.2

*Q* Given the compound Oc1c(Cl)cc(Cl)c(Cl)c1Cc1c(O)c(Cl)cc(Cl)c1Cl , what is its reported inhibition?
*A* 77.3

*Q* Given the compound COc1ccc(C(=O)NCC2CCCN2S(=O)(=O)c2cccs2)cc1OC (stereo unspecified) , what is its reported inhibition?
*A* 19.5

*Q* Given the compound CSc1nnc2ccc(-c3ccc(C)cc3)nn12 , what is its reported inhibition?
*A* 16.4
